B1: SPATS1 (parent)
chain: GRKKYDIDPRNGIPKLTPGDNPYM

variants of: B1; test: protein stability index of a GFP-peptide fusion (GPS, HEK-293T) (PSI 1-6); higher = more stable; conditions: c terminus: a fixed tail appended;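 note: lentivirally expressed fusions sorted by FACS into six bins by GFP to DsRed ratio, PSI derived from sequencing read proportions per bin multiplied by bin number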
Param threshold (3) applies to protein stability index; output yes (1) when value >= threshold, no (0) when value < threshold.

// below: answered variants
GRKKYDIDPRNGIPKLTPGDNVYM :: yes (1)
GRKKYDIDPRKGIPKLTPGDNPYM :: yes (1)
GRKKYDIDPRWGIPKLTPGDNPYM :: no (0)

Okay, now this variant:
Is protein stability index for GRKKYDIDPRNGIPKLTPGVNPYM at or above 3?
yes (1)
